test: Selectivity index, ratio of IC50 for human BEAS2B cells to IC50 for human A549 cells; conditions: BEAS2B cells versus A549 cells, read-out: Ratio IC50
The following molecules are shown together with reported selectivity ratio values.
# output: bare number, no unit

{"record-smiles": "CC[n+]1nn(-c2ccc([N+](=O)[O-])cc2)c2c1C(=O)c1ccccc1C2=O.O=S(=O)([O-])C(F)(F)F", "observed-measurement": 5.89}
{"record-smiles": "COc1ccc(-n2n[n+](-c3ccc(OC)c(OC)c3)c3c2C(=O)c2ccccc2C3=O)cc1OC.O=S(=O)([O-])C(F)(F)F", "observed-measurement": 2.35}
{"record-smiles": "C[n+]1nn(-c2ccc([N+](=O)[O-])cc2)c2c1C(=O)c1ccccc1C2=O.O=S(=O)([O-])C(F)(F)F", "observed-measurement": 15.1}

Ask | // selectivity ratio lookup, key: CCCC[n+]1nn(-c2ccc([N+](=O)[O-])cc2)c2c1C(=O)c1ccccc1C2=O.O=S(=O)([O-])C(F)(F)F
Reply | 1.11

Ask | What measured selectivity ratio goes with CC[n+]1nn(-c2ccc(OC)cc2)c2c1C(=O)c1ccccc1C2=O.O=S(=O)([O-])C(F)(F)F ?
Reply | 6.85

Ask | Endpoint output: selectivity ratio of COc1ccc(-n2n[n+](C)c3c2C(=O)c2ccccc2C3=O)cc1.O=S(=O)([O-])C(F)(F)F . Value?
Reply | 7.44

Ask | What does the data say about its selectivity ratio? Entry: CCCCCCCC[n+]1nn(-c2ccc([N+](=O)[O-])cc2)c2c1C(=O)c1ccccc1C2=O.O=S(=O)([O-])C(F)(F)F
Reply | 4.76

Cited source for all entries: ChEMBL document CHEMBL4270614
